- measured target: Somatostatin receptor type 3 (Homo sapiens, UniProt P32745)
- Sequence (P32745 whole entry): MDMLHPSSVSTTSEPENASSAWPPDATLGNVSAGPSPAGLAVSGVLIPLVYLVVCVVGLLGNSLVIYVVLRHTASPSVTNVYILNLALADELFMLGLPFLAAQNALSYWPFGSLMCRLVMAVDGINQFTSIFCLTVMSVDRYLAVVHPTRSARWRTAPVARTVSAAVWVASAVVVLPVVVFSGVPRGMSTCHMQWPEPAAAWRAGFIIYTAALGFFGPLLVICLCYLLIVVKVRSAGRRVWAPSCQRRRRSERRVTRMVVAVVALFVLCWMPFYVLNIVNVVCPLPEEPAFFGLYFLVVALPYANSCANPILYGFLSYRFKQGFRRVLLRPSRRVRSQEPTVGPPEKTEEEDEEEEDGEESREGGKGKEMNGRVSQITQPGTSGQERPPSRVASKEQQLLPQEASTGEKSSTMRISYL
- assay summary: Agonist activity at human SSTR3 expressed in CHO cells assessed as intracellular cAMP level after 45 mins by time-resolved fluorescence assay relative to control
- Assay type: functional, cell-based
Hi, to clarify the labels: 1 covers Activity from 90% upward, 0 covers anything below 90%.

- smiles structure: "Cc1ccc(-c2c[nH]c(C3(NCc4cc5ccccc5[nH]4)CCCC3)n2)cc1"
  group: 0
- smiles structure: "Cc1ccc(-c2c[nH]c(C3(NCc4ccc(Cl)cc4)CCCC3)n2)cc1"
  group: 1
- smiles structure: "c1ccc(-c2c[nH]c(C3(NCc4c[nH]c5ccccc45)CCCC3)n2)cc1"
  group: 1
- smiles structure: "Cc1ccc(-c2c[nH]c(C3(NCC4CCCCC4)CCCC3)n2)cc1"
  group: 1
- smiles structure: "Cc1ccc(-c2c[nH]c(C3(NCCCc4ccccc4)CCCC3)n2)cc1"
  group: 1
- smiles structure: "COC(=O)c1ccc(CNC2(c3nc(-c4ccc(C)cc4)c[nH]3)CCCC2)cc1"
  group: 0
- smiles structure: "Cc1ccc(-c2c[nH]c(C3(NCc4ccc(C(F)(F)F)cc4)CCCC3)n2)cc1"
  group: 0
- smiles structure: "Cc1ccc(-c2c[nH]c(C3(NCc4c[nH]c5ccccc45)CCCC3)n2)cc1"
  group: 1
- smiles structure: "Cc1ccc(-c2c[nH]c(C3(NCc4ccc(-c5ccccc5)cc4)CCCC3)n2)cc1"
  group: 0
- smiles structure: "COc1cccc2c(CNC3(c4nc(-c5ccc(C)cc5)c[nH]4)CCCC3)c[nH]c12"
  group: 1
- smiles structure: "CCCNC1(c2nc(-c3ccc(C)cc3)c[nH]2)CCCC1"
  group: 1

====

- measured target: Somatostatin receptor type 3 (Homo sapiens, UniProt P32745)
- assay summary: Agonist activity at human SSTR3 expressed in CHO cells assessed as intracellular cAMP level after 45 mins by time-resolved fluorescence assay relative to control
- Assay type: functional, cell-based
Readings of Activity for the listed molecules
experimental readout: Activity (%)

- smiles structure: "Cc1ccc(-c2c[nH]c(C3(NCc4c[nH]c5cccnc45)CCCC3)n2)cc1"
  experimental readout: "Activity"
  quantitative readout: 99
- smiles structure: "Cc1ccc(-c2c[nH]c(C3(NCC4CCOCC4)CCCC3)n2)cc1"
  experimental readout: "Activity"
  quantitative readout: 94
- smiles structure: "Cc1ccc(-c2c[nH]c(C3(NCc4cn(C)c5ccccc45)CCCC3)n2)cc1"
  experimental readout: "Activity"
  quantitative readout: 96
- smiles structure: "COc1ccc(CNC2(c3nc(-c4ccc(C)cc4)c[nH]3)CCCC2)cc1"
  experimental readout: "Activity"
  quantitative readout: 95
- smiles structure: "Cc1ccc(-c2c[nH]c(C3(NCc4ccc(F)cc4)CCCC3)n2)cc1"
  experimental readout: "Activity"
  quantitative readout: 97
- smiles structure: "Cc1ccc(-c2c[nH]c(C3(NCCc4c[nH]c5ccccc45)CCCC3)n2)cc1"
  experimental readout: "Activity"
  quantitative readout: 92
- smiles structure: "Cc1ccc(-c2c[nH]c(C(C)(C)NCc3c[nH]c4ccccc34)n2)cc1"
  experimental readout: "Activity"
  quantitative readout: 87
- smiles structure: "Fc1ccc(-c2c[nH]c(C3(NCc4c[nH]c5ccccc45)CCCC3)n2)cc1"
  experimental readout: "Activity"
  quantitative readout: 102
- smiles structure: "Cc1ccc(-c2c[nH]c(C3(NCCC(F)(F)F)CCCC3)n2)cc1"
  experimental readout: "Activity"
  quantitative readout: 94
- smiles structure: "Cc1ccc(-c2c[nH]c(C3(NCc4ccc5ncccc5c4)CCCC3)n2)cc1"
  experimental readout: "Activity"
  quantitative readout: 80
